All figures here come from paper PMC3739880.

# targetOrTestSystem: S. cerevisiae Ddi1 (Saccharomyces cerevisiae)
# Sequence (P40087 whole entry): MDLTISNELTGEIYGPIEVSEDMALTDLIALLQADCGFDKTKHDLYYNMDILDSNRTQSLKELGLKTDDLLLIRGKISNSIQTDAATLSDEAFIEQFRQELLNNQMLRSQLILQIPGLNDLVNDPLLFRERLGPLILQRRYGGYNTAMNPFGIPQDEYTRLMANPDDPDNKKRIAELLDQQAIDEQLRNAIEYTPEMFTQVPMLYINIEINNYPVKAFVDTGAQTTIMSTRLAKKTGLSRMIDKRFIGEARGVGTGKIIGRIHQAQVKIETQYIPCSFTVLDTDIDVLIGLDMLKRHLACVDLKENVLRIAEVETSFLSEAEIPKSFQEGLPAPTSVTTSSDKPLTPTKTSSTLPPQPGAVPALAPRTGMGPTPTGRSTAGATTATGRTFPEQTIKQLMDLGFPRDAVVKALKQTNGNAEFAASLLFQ
# experimentDescription: Proteinase inhibitor assay
# Assay type: cell-based
# testContext: read-out: Y16141 Ddi1, Inhibition at 25 μM (%)
Kindly state inhibition at 25 µM for each of the entries shown.
Output spec: scalar in %, unitless text.

*Q* Can you look up the measured inhibition at 25 µM of Cc1cccc(C)c1OCC(=O)N[C@@H](Cc1ccccc1)[C@@H](O)C[C@H](Cc1ccccc1)NC(=O)[C@H](C(C)C)N1CCCNC1=O for me?
*A* 6

*Q* One more compound: CC(C)CN(C[C@@H](O)[C@H](Cc1ccccc1)NC(=O)O[C@H]1CCOC1)S(=O)(=O)c1ccc(N)cc1
*A* 95

*Q* Next record, please: Cc1c(O)cccc1C(=O)N[C@@H](CSc1ccccc1)[C@H](O)CN1C[C@H]2CCCC[C@H]2C[C@H]1C(=O)NC(C)(C)C
*A* 40

*Q* Can you check CC(C)c1nc(CN(C)C(=O)N[C@H](C(=O)N[C@@H](Cc2ccccc2)C[C@H](O)[C@H](Cc2ccccc2)NC(=O)OCc2cncs2)C(C)C)cs1 next?
*A* 0

*Q* CC(C)(C)NC(=O)[C@@H]1CN(Cc2cccnc2)CCN1C[C@@H](O)C[C@@H](Cc1ccccc1)C(=O)N[C@H]1c2ccccc2C[C@H]1O , same question.
*A* 24

*Q* CC(C)(C)NC(=O)[C@@H]1C[C@@H]2CCCC[C@@H]2CN1C[C@@H](O)[C@H](Cc1ccccc1)NC(=O)[C@H](CC(N)=O)NC(=O)c1ccc2ccccc2n1 ?
*A* 24

*Q* Quick one: CCC[C@@]1(CCc2ccccc2)CC(O)=C([C@H](CC)c2cccc(NS(=O)(=O)c3ccc(C(F)(F)F)cn3)c2)C(=O)O1
*A* 86

----------
# targetOrTestSystem: Leishmania Ddi1 (Leishmania major)
# Sequence (I7HUG0 148-390): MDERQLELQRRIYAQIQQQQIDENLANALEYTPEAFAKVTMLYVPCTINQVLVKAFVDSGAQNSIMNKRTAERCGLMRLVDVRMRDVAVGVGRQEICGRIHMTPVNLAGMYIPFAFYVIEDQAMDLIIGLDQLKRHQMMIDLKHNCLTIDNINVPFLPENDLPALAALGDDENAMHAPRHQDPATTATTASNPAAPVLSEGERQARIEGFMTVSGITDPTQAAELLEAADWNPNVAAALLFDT
# experimentDescription: Proteinase inhibitor assay
What pIC50 was measured for each of the following?
Units for pIC50: none; it is -log10 of a concentration expressed in mol/L.

*Q* Missing value: pIC50, Leishmania Ddi1 (Leishmania major), entry CC(C)(C)NC(=O)[C@@H]1CN(Cc2cccnc2)CCN1C[C@@H](O)C[C@@H](Cc1ccccc1)C(=O)N[C@H]1c2ccccc2C[C@H]1O . Fill in?
*A* 5.52

*Q* Same question, CC(C)CN(C[C@@H](O)[C@H](Cc1ccccc1)NC(=O)O[C@H]1CCOC1)S(=O)(=O)c1ccc(N)cc1 this time
*A* 5.24

*Q* Please give the result for CC(C)(C)NC(=O)[C@@H]1C[C@@H]2CCCC[C@@H]2CN1C[C@@H](O)[C@H](Cc1ccccc1)NC(=O)[C@H](CC(N)=O)NC(=O)c1ccc2ccccc2n1 too.
*A* 5.55

*Q* Lookup Cc1c(O)cccc1C(=O)N[C@@H](CSc1ccccc1)[C@H](O)CN1C[C@H]2CCCC[C@H]2C[C@H]1C(=O)NC(C)(C)C
*A* 6.36

*Q* Could you do the same for CCC[C@@]1(CCc2ccccc2)CC(O)=C([C@H](CC)c2cccc(NS(=O)(=O)c3ccc(C(F)(F)F)cn3)c2)C(=O)O1 , please?
*A* 5.54

*Q* # iterate: Cc1cccc(C)c1OCC(=O)N[C@@H](Cc1ccccc1)[C@@H](O)C[C@H](Cc1ccccc1)NC(=O)[C@H](C(C)C)N1CCCNC1=O
*A* 4.25
